Recorded values, source paper PMC4336329.

Measured hERG current change (%, negative = inhibition) at 10uM, listed per entry.
Target: human ether-à-go-go-related gene (hERG) potassium channel (human);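 also: peak tail current of the secondary pulse compared with the same well before compound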
Sequence (Q12809 whole entry, looked up): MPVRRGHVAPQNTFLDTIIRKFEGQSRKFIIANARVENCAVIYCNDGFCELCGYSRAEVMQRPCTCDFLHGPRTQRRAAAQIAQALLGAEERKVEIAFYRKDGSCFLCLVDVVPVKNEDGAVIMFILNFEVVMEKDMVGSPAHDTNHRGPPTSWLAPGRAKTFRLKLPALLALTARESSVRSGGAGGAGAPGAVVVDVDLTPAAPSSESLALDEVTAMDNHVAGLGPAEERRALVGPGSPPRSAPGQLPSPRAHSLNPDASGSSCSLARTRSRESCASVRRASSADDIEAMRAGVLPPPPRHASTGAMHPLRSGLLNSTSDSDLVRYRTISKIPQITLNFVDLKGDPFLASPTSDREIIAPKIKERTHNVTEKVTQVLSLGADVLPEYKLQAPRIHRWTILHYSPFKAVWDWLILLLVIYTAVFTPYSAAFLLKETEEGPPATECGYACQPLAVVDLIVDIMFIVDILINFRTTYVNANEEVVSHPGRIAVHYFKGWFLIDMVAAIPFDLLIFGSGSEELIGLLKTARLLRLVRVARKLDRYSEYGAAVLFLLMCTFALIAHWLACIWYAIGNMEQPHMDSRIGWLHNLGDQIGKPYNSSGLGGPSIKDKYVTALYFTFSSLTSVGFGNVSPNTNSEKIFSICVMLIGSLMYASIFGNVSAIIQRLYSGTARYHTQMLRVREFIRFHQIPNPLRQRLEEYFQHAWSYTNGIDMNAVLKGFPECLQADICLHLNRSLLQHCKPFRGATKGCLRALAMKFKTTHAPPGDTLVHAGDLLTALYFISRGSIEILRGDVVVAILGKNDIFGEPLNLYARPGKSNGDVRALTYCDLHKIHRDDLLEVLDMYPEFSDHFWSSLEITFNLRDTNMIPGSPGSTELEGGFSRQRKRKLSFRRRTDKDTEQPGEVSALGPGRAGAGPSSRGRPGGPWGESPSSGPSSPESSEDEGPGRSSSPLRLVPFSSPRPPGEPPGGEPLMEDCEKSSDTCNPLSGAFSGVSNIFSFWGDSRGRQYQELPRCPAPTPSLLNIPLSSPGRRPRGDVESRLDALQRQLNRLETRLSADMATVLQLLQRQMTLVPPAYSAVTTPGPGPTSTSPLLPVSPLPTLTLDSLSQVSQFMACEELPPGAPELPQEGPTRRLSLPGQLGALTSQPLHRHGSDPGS
Experiment: primary screen, population patch clamp on CHO cells stably expressing hERG; higher = less effect of the substance
Description: Briefly, Chinese hamster ovary (CHO) cells stably expressing the hERG channel were dislodged from tissue culture flasks and dispensed into PPC plates. […] During the recording, background leak currents were estimated by a 100 ms step to -80 mV from an initial holding potential of -70 mV and subtracted from the subsequent current measurement. The campaign was conducted in two phases using slight differences in recording protocol. […]
In all, about 310,000 compounds went through this assay and about 14,000 (4.5%) showed an effect of 50% or more. The effect is printed as a negative number. The list comes from a sample in which strong results are over-represented; it also holds close analogues and randomly drawn compounds.

O=C1c2ccccc2C(=O)N1CCc1nc(-c2cccnc2)no1; -12.2%
Nc1nc(CCl)nc(Nc2ccccc2)n1; 20.7%
Nc1nc(CN2CCCCCC2)nc(Nc2ccccc2)n1; -61.4%

Lookup: For human ether-à-go-go-related gene (hERG) potassium channel (human), provide hERG current change (%, negative = inhibition) at 10uM of O=C(c1cccs1)N1CCCC(c2nc(-c3ccc(F)cc3)no2)C1 (stereo not shown) please.
Found: -51.7%

Lookup: Try this molecule too: c1ccc(Nc2nc(N3CCCCC3)nc(N3CCCCC3)n2)cc1
Found: -4.68%

Lookup: What about Nc1nc(CN2CCN(Cc3ccccc3)CC2)nc(Nc2ccccc2)n1 ?
Found: -66.2%

Lookup: Cool, now CCN(CC)S(=O)(=O)c1ccc(S(=O)(=O)N2CCCC2C(=O)O)cc1 (stereo not shown)
Found: -0.323%
